targetOrSystem: GSPT1 (Homo sapiens, UniProt P15170+Q96SW2)
Sequence (P15170 whole entry, one chain of several, the tested form may be a part): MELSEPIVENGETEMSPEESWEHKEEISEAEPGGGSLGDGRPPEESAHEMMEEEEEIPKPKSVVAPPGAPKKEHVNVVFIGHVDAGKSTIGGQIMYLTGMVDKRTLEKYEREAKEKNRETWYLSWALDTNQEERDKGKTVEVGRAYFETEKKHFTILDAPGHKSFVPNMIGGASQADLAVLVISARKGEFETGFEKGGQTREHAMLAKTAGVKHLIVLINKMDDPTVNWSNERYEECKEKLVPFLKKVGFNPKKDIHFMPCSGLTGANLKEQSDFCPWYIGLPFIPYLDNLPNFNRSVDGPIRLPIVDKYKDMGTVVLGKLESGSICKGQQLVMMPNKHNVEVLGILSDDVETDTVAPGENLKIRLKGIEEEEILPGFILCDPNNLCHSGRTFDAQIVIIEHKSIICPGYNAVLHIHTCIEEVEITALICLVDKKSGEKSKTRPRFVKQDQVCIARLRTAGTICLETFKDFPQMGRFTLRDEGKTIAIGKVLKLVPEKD
assayProcedure: Cellular degradation assay, eGFP-GSPT1 fusion with mCherry reporter in Flp-In 293 cells
Format: cell-based
Design: expressed in transfected cells; host or cells: Flp-In 293
condition: compound concentration 2.00E−06; 5 h incubation; n=1
# GSPT1 GFP/RFP Relative Abundance >= 1 gives YES, anything below gives NO

Hi team, for Cc1ccc(NC(=O)Nc2cccc(NC3=CC(=O)N(C4CCC(=O)NC4=O)C3=O)c2)cc1C (centres unmarked) , is the recorded GSPT1 GFP/RFP Relative Abundance at or above 1? NO

How about this molecule: COC(=O)c1n[nH]c(NC2=CC(=O)N(C3CCC(=O)NC3=O)C2=O)n1 (centres unmarked) YES

How about this molecule: Cc1ccc(NC(=O)NCc2ccc(NC3=CC(=O)N(C4CCC(=O)NC4=O)C3=O)cc2)cc1Cl (centres unmarked) NO

How about this molecule: O=C1CCC(N2C(=O)C=C(Nc3cnc4ccccc4c3)C2=O)C(=O)N1 (centres unmarked) YES

How about this molecule: CN(C)C(=O)Cc1cccc(NC2=CC(=O)N(C3CCC(=O)NC3=O)C2=O)c1 (centres unmarked) YES

How about this molecule: O=C1CCC(N2C(=O)C=C(Nc3cccc(-c4cc[nH]n4)c3)C2=O)C(=O)N1 (centres unmarked) YES

How about this molecule: Cc1ccc(NC(=O)Oc2cccc(NC3=CC(=O)N(C4CCC(=O)NC4=O)C3=O)c2)cc1Cl (centres unmarked) NO

====

targetOrSystem: SALL4 ZNF1-2 (Homo sapiens, UniProt Q96SW2+Q9UJQ4)
Construct: IKZF1Δ, IKZF2Δ, GSPT1 and SALL4 ZnF1-2 were subcloned; expressed in transfected cells; host or cells: Flp-In 293
Sequence (Q9UJQ4 378-438 limits assumed): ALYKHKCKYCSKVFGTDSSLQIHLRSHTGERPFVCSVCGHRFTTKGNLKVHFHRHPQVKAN
Sequence (Q96SW2 whole entry): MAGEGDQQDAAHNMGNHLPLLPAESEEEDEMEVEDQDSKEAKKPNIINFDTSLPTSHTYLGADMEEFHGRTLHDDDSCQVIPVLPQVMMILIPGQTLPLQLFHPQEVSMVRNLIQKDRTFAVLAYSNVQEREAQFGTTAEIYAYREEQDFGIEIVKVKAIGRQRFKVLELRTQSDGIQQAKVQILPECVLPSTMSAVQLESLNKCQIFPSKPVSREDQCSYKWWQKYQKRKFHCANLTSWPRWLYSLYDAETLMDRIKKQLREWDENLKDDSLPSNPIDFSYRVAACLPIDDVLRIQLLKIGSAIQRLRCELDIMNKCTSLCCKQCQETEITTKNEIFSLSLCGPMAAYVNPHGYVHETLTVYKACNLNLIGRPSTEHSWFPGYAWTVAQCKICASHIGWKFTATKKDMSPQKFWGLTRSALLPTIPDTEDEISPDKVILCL
Sequence (Q16531 whole entry partner): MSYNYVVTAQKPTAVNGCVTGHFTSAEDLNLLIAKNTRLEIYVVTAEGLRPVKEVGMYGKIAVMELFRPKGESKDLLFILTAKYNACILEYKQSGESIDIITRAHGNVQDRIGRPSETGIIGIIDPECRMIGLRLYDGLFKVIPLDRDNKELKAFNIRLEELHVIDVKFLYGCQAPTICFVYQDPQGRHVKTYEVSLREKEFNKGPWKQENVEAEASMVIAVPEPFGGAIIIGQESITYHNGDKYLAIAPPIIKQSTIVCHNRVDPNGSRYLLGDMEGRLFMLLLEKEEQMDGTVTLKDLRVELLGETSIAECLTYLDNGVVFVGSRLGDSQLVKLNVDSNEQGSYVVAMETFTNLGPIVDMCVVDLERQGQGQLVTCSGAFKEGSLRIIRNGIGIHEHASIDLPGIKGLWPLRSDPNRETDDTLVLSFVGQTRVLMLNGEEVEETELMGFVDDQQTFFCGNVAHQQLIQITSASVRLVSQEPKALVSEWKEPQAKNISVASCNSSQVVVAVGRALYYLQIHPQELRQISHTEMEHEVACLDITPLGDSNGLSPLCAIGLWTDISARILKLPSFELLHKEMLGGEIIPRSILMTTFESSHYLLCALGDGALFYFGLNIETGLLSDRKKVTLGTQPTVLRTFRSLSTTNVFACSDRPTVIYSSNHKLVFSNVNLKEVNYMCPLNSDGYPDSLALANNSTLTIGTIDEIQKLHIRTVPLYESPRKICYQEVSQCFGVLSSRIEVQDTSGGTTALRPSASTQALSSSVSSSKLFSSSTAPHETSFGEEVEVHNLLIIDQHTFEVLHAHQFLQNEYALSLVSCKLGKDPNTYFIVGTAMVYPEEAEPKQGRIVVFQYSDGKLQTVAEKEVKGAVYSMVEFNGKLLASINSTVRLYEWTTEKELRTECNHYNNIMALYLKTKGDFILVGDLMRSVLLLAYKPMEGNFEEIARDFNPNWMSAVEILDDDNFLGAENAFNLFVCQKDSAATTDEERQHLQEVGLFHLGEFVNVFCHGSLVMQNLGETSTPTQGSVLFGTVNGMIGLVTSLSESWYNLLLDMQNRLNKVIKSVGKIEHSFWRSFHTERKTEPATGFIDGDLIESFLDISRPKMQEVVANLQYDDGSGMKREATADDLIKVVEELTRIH
assayProcedure: Cellular degradation assay, eGFP-SALL4 ZnF1-2 fusion with mCherry reporter in Flp-In 293 cells
Type: cell-based
condition: compound concentration 2.00E−06; 5 h incubation; n=1
Field 'label' (enum: criterion met / criterion not met). Set to criterion met when SALL4 ZNF1-2 GFP/RFP Relative Abundance is strictly under 0.9; else criterion not met.

{"molecule": "Cc1ccc(NC(=O)NCc2cccc(NC3=CC(=O)N(C4CCC(=O)NC4=O)C3=O)c2)cc1Cl (stereo not drawn) [Compound 44]", "labelClass": "criterion met"}

Here's an entry: CN(C)C(=O)c1ccc(NC2=CC(=O)N(C3CCC(=O)NC3=O)C2=O)cc1 (stereo not drawn) [Compound 34] . Is its SALL4 ZNF1-2 GFP/RFP Relative Abundance below 0.9? criterion not met

How about this molecule: O=C1CCC(N2C(=O)C=C(Nc3ccc(Cc4ccccc4)cc3)C2=O)C(=O)N1 (stereo not drawn) [Compound 39] criterion not met

How about this molecule: O=C1CCC(N2C(=O)C=C(Nc3cccc(-c4nnn[nH]4)c3)C2=O)C(=O)N1 (stereo not drawn) [Compound 23] criterion not met

How about this molecule: O=C1CCC(N2C(=O)C=C(Nc3cnc4ccccc4c3)C2=O)C(=O)N1 (stereo not drawn) [Compound 27] criterion not met

====

targetOrSystem: GSPT1 (Homo sapiens, UniProt P15170+Q96SW2)
assayProcedure: Cellular degradation assay, eGFP-GSPT1 fusion with mCherry reporter in Flp-In 293 cells
Format: cell-based
Design: expressed in transfected cells; host or cells: Flp-In 293
condition: compound concentration 2.00E−05; 5 h incubation; n=1
# GSPT1 GFP/RFP Relative Abundance >= 0.4 gives YES, anything below gives NO

// known answers, use as guide
{"compound": "Cc1ccc(NC2=CC(=O)N(C3CCC(=O)NC3=O)C2=O)cc1C (stereo not drawn)", "labelClass": "YES"}
{"compound": "Cc1ccc(NC(=O)/C=C/c2cccc(NC3=CC(=O)N(C4CCC(=O)NC4=O)C3=O)c2)cc1Cl (stereo not drawn)", "labelClass": "NO"}
{"compound": "Cc1ccc(NC(=O)NCCNC2=CC(=O)N(C3CCC(=O)NC3=O)C2=O)cc1Cl (stereo not drawn)", "labelClass": "NO"}
{"compound": "Cc1ccc(NC(=O)NCCc2cccc(NC3=CC(=O)N(C4CCC(=O)NC4=O)C3=O)c2)cc1Cl (stereo not drawn)", "labelClass": "NO"}
{"compound": "O=C1CCC(N2C(=O)C=C(Nc3ccc4cn[nH]c4c3)C2=O)C(=O)N1 (stereo not drawn)", "labelClass": "YES"}
{"compound": "Cc1ccc(NC(=O)c2cccc(NC3=CC(=O)N(C4CCC(=O)NC4=O)C3=O)c2)cc1Cl (stereo not drawn)", "labelClass": "NO"}

Hi team, for COC(=O)CCNC1=CC(=O)N(C2CCC(=O)NC2=O)C1=O (stereo not drawn) , is the recorded GSPT1 GFP/RFP Relative Abundance at or above 0.4? YES

How about this compound: Cc1ccc(NC(=O)NCc2ccc(NC3=CC(=O)N(C4CCC(=O)NC4=O)C3=O)cc2)cc1Cl (stereo not drawn) NO

How about this compound: Cc1ccc(NCc2cccc(NC3=CC(=O)N(C4CCC(=O)NC4=O)C3=O)c2)cc1Cl (stereo not drawn) NO
